tested.on: AChE (from bovine erythrocytes) (Bos taurus)
Construct: AChE (Sigma Chemical Co. from bovine erythrocytes); purchased Sigma Chemical Co; host or cells: bovine erythrocytes
Sequence (P23795 31-614 isoform P23795-2 limits assumed): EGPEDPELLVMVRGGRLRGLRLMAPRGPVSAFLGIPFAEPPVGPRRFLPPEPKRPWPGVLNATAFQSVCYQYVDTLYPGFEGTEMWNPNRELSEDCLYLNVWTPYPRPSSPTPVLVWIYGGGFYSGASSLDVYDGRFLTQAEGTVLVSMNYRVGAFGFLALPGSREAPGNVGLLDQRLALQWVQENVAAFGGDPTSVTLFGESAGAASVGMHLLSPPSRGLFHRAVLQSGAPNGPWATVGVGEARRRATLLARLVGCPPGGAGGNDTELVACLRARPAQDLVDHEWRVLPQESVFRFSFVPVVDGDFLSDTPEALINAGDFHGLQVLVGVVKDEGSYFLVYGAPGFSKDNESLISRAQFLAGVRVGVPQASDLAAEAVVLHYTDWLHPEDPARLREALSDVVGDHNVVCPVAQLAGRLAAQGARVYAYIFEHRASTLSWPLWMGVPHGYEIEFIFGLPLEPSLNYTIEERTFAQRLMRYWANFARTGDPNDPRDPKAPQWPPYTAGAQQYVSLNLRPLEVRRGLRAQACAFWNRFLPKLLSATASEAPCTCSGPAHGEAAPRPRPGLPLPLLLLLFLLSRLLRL
procedure.text: AChE inhibition (Ellman colorimetric method)
Format: biochemical
protocol.conditions: 3 × 10^−5 M; read-out: % inhibition AChE (concentration)
Experimental: AChE inhibitory activity was evaluated at 30° C. by the colorimetric method reported by Ellman (Ellman, G. L. et al., 1961, Biochem Pharmacol, 7, 88-95). […] The absorbance changes at 405 nm were recorded for 5 min with a microplate reader Digiscan 340T, the reaction rates were compared, and the percent inhibition due to the presence of test compounds was calculated. […]
assay.metric: inhibition at 30 µM (%)
Your answer is read as %, so omit the unit and give the number.

compound.string | measured
COC1=C(Br)[C@@H]2OC(=O)C[C@]2(O)C=C1Br | 7

Record COC1=C(Br)[C@@H](O)[C@]2(C=C1Br)CC(C(=O)NCCc1cc(Br)c(OCCCNC(=O)C3=NO[C@]4(C=C(Br)C(OC)=C(Br)[C@@H]4O)C3)c(Br)c1)=NO2 : what is its inhibition at 30 µM with AChE (from bovine erythrocytes) (Bos taurus)? 63

Record COC1=C(Br)[C@H](O)[C@@]2(C=C1Br)CC(C(=O)NCCCCCNC(=O)C1=NO[C@]3(C=C(Br)C(OC)=C(Br)[C@@H]3O)C1)=NO2 : what is its inhibition at 30 µM with AChE (from bovine erythrocytes) (Bos taurus)? 9

Record COC1=C(Br)[C@H](O)[C@](O)(CC#N)C=C1Br : what is its inhibition at 30 µM with AChE (from bovine erythrocytes) (Bos taurus)? 19

Record COC1=C(Br)[C@H](O)[C@@]2(C=C1Br)CC(C(=O)NCCCCNC(=O)C1=NO[C@]3(C=C(Br)C(OC)=C(Br)[C@@H]3O)C1)=NO2 : what is its inhibition at 30 µM with AChE (from bovine erythrocytes) (Bos taurus)? 12
